Would you kindly list RU at 25 nM for each of these binders?
Molecular target: Macaca fascicularis CD3ε/δ-Fc fusion heterodimer (Macaca fascicularis) (UniProt Q95LI8)
Sequence (chain, as listed by the source mutant, chain 1 of 2): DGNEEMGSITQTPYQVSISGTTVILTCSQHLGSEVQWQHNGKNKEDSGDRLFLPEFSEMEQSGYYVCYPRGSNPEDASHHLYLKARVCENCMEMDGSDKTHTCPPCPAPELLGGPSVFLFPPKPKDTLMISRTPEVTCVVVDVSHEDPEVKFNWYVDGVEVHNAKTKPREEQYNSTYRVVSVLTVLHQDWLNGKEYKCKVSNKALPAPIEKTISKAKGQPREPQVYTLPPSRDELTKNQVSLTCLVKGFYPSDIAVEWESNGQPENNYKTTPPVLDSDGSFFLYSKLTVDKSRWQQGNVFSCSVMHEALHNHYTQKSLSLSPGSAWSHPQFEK
Sequence (Q95LI8 22-105, stated change not applied, chain 2 of 2): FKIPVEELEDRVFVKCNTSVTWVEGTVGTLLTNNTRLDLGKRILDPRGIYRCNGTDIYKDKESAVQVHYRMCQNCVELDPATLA
Test: SPR single point, hybridoma supernatant
Please reply with the bare figure in RU and do not write the unit itself.

Any idea what its RU at 25 nM is? The binder is 18H11-F10 anti-CD3 antibody (antibody, V domains shown) VH: EVQLVESGGGLVQPGRSLKLSCAASGFIFSDYYMAWVRQAPKKGLEWVATISISGSRTYYPDSVKGRFTVSRDNAKSSLYLQMNSLKSEDTATYYCATNNPGGWFVYWGQGTLVTVSS VL: NIQMTQSPSLLSASVGDRVTLSCKAGQNINNDLAWYQQKLGEAPRLLIYNANSLQTGIPSRFSGSGSGADFTLTISSLQPEDVATYFCQQYSSGDTFGAGTKLELK
55

Also check 11F3-B9 anti-CD3 antibody (antibody, V domains shown) VH: EVQLVETGGSLVQPGKSLTLTCATSGFTFSNAWMHWVRQSPEKQLEWVAQIKAKSNNYATYYAESVKGRFTISRDDSKRSVYLQMNSLKEEDTAIYYCRYVNYGLAPMDVWGQGTSVTVSS VL: DVVMTQTPVSLSVSLGGQVSISCRSSQSLVHDNGNTYLSWYLQKPGQSPQLLIYKVSNRFSGFSDRFSGSGSGTDFTLKISRVEPDDLGVYYCGQGTQYPFTFGAGTKLELK
17

Also check 10E6-G6 anti-CD3 antibody (antibody, V domains shown) VH: EVQLVETGGGLVQSGKSLKLTCATSGFTVTNAWMHWVRQSPEKQLEWVAQIKAKSNNYETYYAESVKGRFTISRDDSKSSVYLQMNSLKEEDTAIYYCRGTQYGYNPFDYWGQGVMVTVSS VL: DVVMTQSPVSLSVSLGGQVSISCRSSQSLVHNNGYTYLSWYLQKPGQSPQVFIYKVSNRFSGISDRFSGSGSGTDFTLKISRIEPDDLGVYYCGQGTHYPFTFGSGTKLEIK
0

Also check 13C1-F6 anti-CD3 antibody (antibody, V domains shown) VH: EVQLVETGGTLVQPGKSLKLTCATSGFTFSNAWMHWVRQSPEKQLEWVAQIKAKSNNYATYYAESVKGRFTISRDDSKTSVYLQLNSLREEDTAIYYCRGTQYGYNPFDYWGQGVMVTVSS VL: DVVMTQSPVSLSVSLGGQVSISCRSSQSLVHNNGNTYLSWYLQRSGQSPQLLIYKVSNRLSGISDRFSGSGSGTDFTLKISRIEPDDLGVYYCGQGTQYPFTFGSGTRLEIK
15.5

Also check 8H2-F3 anti-CD3 antibody (antibody, V domains shown) VH: QIQLVQSGPELKKPGESVKISCKASGYTFTDFAMNWVKQAPGNGLKWMGWINTQTGKPTYADGFKQRFVFSLETSASTIYLQINNLNIEDTATYFCTRGALASVGQGVMVTVSS VL: DVVMTQTPVSLSVAIGQPASISCKSSQSLVGTSGKTYLNWLLQRPGQSPKRLIYLVSKLDSGIPDRFSGSGSETDFTLKISRVETDDLGVYYCLQGSHFPLTFGSGTKLEIK
40
